Tested on: Hepatitis C virus NS3 helicase
Experimental protocol: HCV NS3 helicase inhibitors, primary screen, biochemical, fluorescence polarization, NIH Clinical Collection (AID 743270)
Experimental parameters: NS3 helicase binding to Cy5-dT15 DNA, stronger effect = higher value, concentration not given here
Activity calls are given as the source filed them. How the calls were made is not given here.
Measured parameter: inhibition

Recorded inhibition, per entry:
COc1ccc2c3c1O[C@H]1C[C@@H](O)C=C[C@@]31CCN(C)C2 = -2.77% (inactive)
O=C(NCC1CCCCN1)c1cc(OCC(F)(F)F)ccc1OCC(F)(F)F (stereo unspecified) = -15% (inactive)
CC(C)n1c(/C=C/[C@@H](O)C[C@@H](O)CC(=O)O)c(-c2ccc(F)cc2)c2ccccc21 = -2.27% (inactive)
CCN1CCN(C(=O)N[C@@H](C(=O)N[C@@H]2C(=O)N3[C@@H]2SC(C)(C)[C@@H]3C(=O)O)c2ccccc2)C(=O)C1=O = -3.18% (inactive)
CC(C)NCC(O)COc1cccc2ccccc12 (stereo unspecified) = -8.64% (inactive)
CON=C(C(=O)NC1C(=O)N2C(C(=O)O)=C(COC(C)=O)CSC12)c1csc(N)n1 (stereo unspecified) = 4.09% (inactive)
CCn1cc(C(=O)O)c(=O)c2ccc(C)nc21 = -0.45% (inactive)
C[N+]1(C)CCCC(OC(=O)C(O)(c2ccccc2)c2ccccc2)C1 (stereo unspecified) = -3.18% (inactive)

Each of the following entries comes with a recorded value; kindly state inhibition for each.
1. CC(C)(C)NCC(O)c1ccc(O)c(CO)c1 (stereo unspecified)
2. CC(=O)OCC(=O)[C@@]1(O)CC[C@H]2[C@@H]3CCC4=CC(=O)CC[C@]4(C)[C@H]3[C@@H](O)C[C@@]21C
3. CC(C)[N+]1(C)C2CCC1CC(OC(=O)C(CO)c1ccccc1)C2 (stereo unspecified)
4. COC(=O)[C@H](c1ccccc1Cl)N1CCc2sccc2C1

1. -1.19% (inactive)
2. -0.45% (inactive)
3. -3.18% (inactive)
4. -9.55% (inactive)

Each of the following entries comes with a recorded value; kindly state inhibition for each.
1. C[C@H](CCC(=O)O)[C@H]1CC[C@H]2[C@@H]3[C@@H](O)C[C@@H]4C[C@H](O)CC[C@]4(C)[C@H]3CC[C@]12C
2. CN(C)CCC(c1ccc(Cl)cc1)c1ccccn1 (stereo unspecified)
3. O=[N+]([O-])c1cccc2cn[nH]c12

-1.36% (inactive)
-1.98% (inactive)
1.53% (inactive)

Each of the following entries comes with a recorded value; kindly state inhibition for each.
1. Nc1ncnc2c1ncn2[C@@H]1O[C@H](CO)[C@@H](O)[C@@H]1O
2. CC(C(=O)O)c1cccc(C(=O)c2ccccc2)c1 (stereo unspecified)
3. Nc1ccn([C@@H]2O[C@H](CO)[C@@H](O)C2O)c(=O)n1 (stereo partly specified)
4. CC=C1[C@H]2C=C(C)C[C@]1(N)c1ccc(=O)[nH]c1C2
5. CC1(C)SC2C(NC(=O)COc3ccccc3)C(=O)N2C1C(=O)O (stereo unspecified)
6. CCc1ccc(CCOc2ccc(CC3SC(=O)NC3=O)cc2)nc1 (stereo unspecified)

1. -4.09% (inactive)
2. -1.36% (inactive)
3. -5.15% (inactive)
4. -2.84% (inactive)
5. -3.18% (inactive)
6. 0.4% (inactive)

----------
For each of the compounds below, state its viability decrease (inhibition).
Experimental protocol: CellTiter-Glo luminescent readout of SW480 viability loss, NPC library primary (AID 1117343)
Experimental parameters: CellTiter-Glo luminescence; at 20 µM (top of the series) unless noted
Activity calls are given as the source filed them.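 How the source made its calls: active means compounds that lower viability of the colon cancer cells in the luminescence readout, with no numeric limit stated; inactive means the rest.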

Recorded viability decrease (inhibition), per entry:
CC(=O)Oc1ccc2c(c1)CC[C@@H]1[C@@H]2CC[C@]2(C)[C@@H](O)CC[C@@H]12 = 72.9% (active)
CN1C(=O)CC(c2ccccc2)C1=O (configuration not stated) = 54.4% (active)
CC(C)(CO)[C@@H](O)C(=O)NCCCO = 100% (active)

Each of the following entries comes with a recorded value; kindly state viability decrease (inhibition) for each.
1. NC(=O)C(c1ccccc1)(c1ccccc1)[C@@H]1CCN(CCc2ccc3c(c2)CCO3)C1
2. O=C(O)COC(=O)Cc1ccccc1Nc1c(Cl)cccc1Cl

1. 22.8% (inactive)
2. 83.7% (active)

Each of the following entries comes with a recorded value; kindly state viability decrease (inhibition) for each.
1. O=C(O)C1CCC1
2. [O-][n+]1cccc(CO)c1
3. NC(=O)CCCCC1CCSS1 (configuration not stated)
4. O[C@@H](CNC[C@H](O)[C@H]1CCc2cc(F)ccc2O1)[C@@H]1CCc2cc(F)ccc2O1
5. NCCNCCNCCN
6. C#C[C@]1(O)CC[C@H]2[C@@H]3CCc4cc(OC5CCCC5)ccc4[C@H]3CC[C@@]21C
7. N[C@H]1C(O)O[C@H](CO)[C@@H](O)[C@@H]1O (some centres not stated)

1. 1.4% (inactive)
2. -11.9% (inactive)
3. -43.7% (inactive)
4. 130% (active)
5. -40.9% (inactive)
6. 145% (active)
7. -42% (inactive)

----------
Experimental protocol: viability loss in pontine glioma line – cell-based, SU-DIPG-XXV, MIPE5.0, CellTiter-Glo, qHTS, dose response (AID 1347065);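 further: cells exposed to compound for 48 hours before ATP readout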
Experimental parameters: CellTiter-Glo ATP luminescence
Inconclusive results are not listed. Activity calls are given as the source filed them. Cut-off not given; nearly all actives show AC50 up to about 26 µM.
I would appreciate it if you answered using one of these outcomes: 1.0 for active, 0.0 for inactive

The following compounds have reported results that may help.
CC1(C)CCC(C)(C)c2cc(NC(=O)c3ccc(C(=O)O)cc3)ccc21 = 0.0
CCC[C@@H]1C[C@@H](C(=O)N[C@@H]([C@H]2O[C@H](SC)[C@H](O)[C@@H](O)[C@H]2O)[C@H](C)Cl)N(C)C1 = 0.0

Look up the recorded call for `CC(C)(S)[C@@H](N)C(=O)O` in this test. 0.0

Look up the recorded call for `N=C(N)c1ccc2cc(OC(=O)c3ccc(N=C(N)N)cc3)ccc2c1` in this test. 0.0

Look up the recorded call for `CC[C@H]1OC(=O)[C@H](C)[C@@H](O[C@H]2C[C@@](C)(OC)[C@@H](O)[C@H](C)O2)[C@H](C)[C@@H](O[C@@H]2O[C@H](C)C[C@H](N(C)C)[C@H]2O)[C@](C)(O)C[C@@H](C)C(=O)[C@H](C)[C@@H](O)[C@]1(C)O` in this test. 0.0

Look up the recorded call for Cc1oc(=O)oc1CN1CCN(c2cc3c(cc2F)c(=O)c(C(=O)O)c2n3C(C)S2)CC1 (stereo unspecified) in this test. 0.0

Look up the recorded call for `C[C@@H](CN1CC(=O)NC(=O)C1)N1CC(=O)NC(=O)C1` in this test. 0.0

----------
For each of the compounds below, state its normalised cell number.
Experimental protocol: differential killing of epithelial or mesenchymal cells, primary screen, imaging, PC-3E GFP, TEM4-18 mCherry, co-culture (AID 1345086);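 further: cells exposed to compound for 72 h before imaging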
Experimental parameters: imaging cell counts, measured here: epithelial PC-3E GFP cell survival, at 1 µM
Peptide text beside a SMILES is read from it.
Give bare numbers.

CC1=C(/C=C/C(C)=C/C=C/C(C)=C/C=C/C=C(C)/C=C/C=C(C)/C=C/C(=O)[C@]2(C)C[C@@H](O)CC2(C)C)C(C)(C)C[C@H](O)C1 = 0.85
CC1(C)CC23C(=O)CCC(O)C2(C)CCC13 (stereo unspecified) = 1.11
CCCCC(CC)COc1ccc(-c2nc(-c3ccc(OC)cc3)nc(-c3ccc(OCC(CC)CCCC)cc3O)n2)c(O)c1 (stereo unspecified) = 1.25
C[N+](C)(C)CC(O)CC(=O)O (stereo unspecified) = 0.96
CC(C)OC(=O)C(C)(C)Oc1ccc(C(=O)c2ccc(Cl)cc2)cc1 = 1

Each of the following entries comes with a recorded value; kindly state normalised cell number for each.
1. CCN(CC)CCc1nc(-c2ccccc2)no1
2. CN(C)CCC(c1ccc(Cl)cc1)c1ccccn1 (stereo unspecified)
3. O=C(O)c1nc2cc(Cl)c(Cl)cc2[nH]c1=O

1: 1.14; 2: 0.91; 3: 1.19

Each of the following entries comes with a recorded value; kindly state normalised cell number for each.
1. CC(=O)N[C@@H](CC(=O)O)C(=O)N[C@@H](CCC(=O)O)C(=O)O (Ac-Asp-Glu-OH)
2. COC(=O)c1cc(=O)c(O)c2c(O)c(O)ccc2c1
3. CCOC(=O)c1c(C)cc(O)cc1O

[1.17, 1.21, 0.99]

----------
Experimental protocol: sensitizers of A549 cells to miR-34 induction, primary screen, imaging, A549 dox-inducible miR-34, nuclei and caspase counts (AID 1347080)
Experimental parameters: A549 miR-34 inducible, Hoechst nuclei count, 48 h; stronger effect = lower value; cell number ratio, induced over uninduced
Binary call on fold change with cut-off 0.9: strictly below means Fulfilled, and equality or higher means Not fulfilled.

The following molecules have reported results that may help.
O=C1c2ccccc2C(=O)C1c1ccc(Br)cc1 = Fulfilled
CCCn1cnc2c1c(=O)n(CCCCC(C)=O)c(=O)n2C = Not fulfilled
COc1ccc2ccc(=O)oc2c1CC=C(C)C = Not fulfilled
C[C@H]1O[C@H](O[C@H]2[C@H](O)[C@@H](O)[C@@H](O[C@H]3[C@H](O)[C@@H](O)[C@H](O)O[C@@H]3CO)O[C@@H]2CO)[C@H](O)[C@@H](O)[C@@H]1N[C@H]1C=C(CO)[C@@H](O)[C@H](O)[C@H]1O = Fulfilled
O=c1cc(-c2ccccc2)oc2c(O)c(O)ccc12 = Not fulfilled

Strictly below 0.9 in fold change? CCN(CC)CCNC(C(=O)OCCC(C)C)c1ccccc1 (centres undefined) Not fulfilled

Strictly below 0.9 in fold change? `OC[C@@H](O)[C@@H](O[C@@H]1O[C@H](CO)[C@H](O)[C@H](O)[C@H]1O)[C@H](O)[C@@H](O)CO` Not fulfilled

Data provenance: PubChem BioAssay
